Some compounds, each annotated with its measured Kd.
- Study target: adiponectin receptor 1 (ADIPOR1) (Homo sapiens)
- Construct: Flag tag (N)
- Sequence (Q96A54 89-375): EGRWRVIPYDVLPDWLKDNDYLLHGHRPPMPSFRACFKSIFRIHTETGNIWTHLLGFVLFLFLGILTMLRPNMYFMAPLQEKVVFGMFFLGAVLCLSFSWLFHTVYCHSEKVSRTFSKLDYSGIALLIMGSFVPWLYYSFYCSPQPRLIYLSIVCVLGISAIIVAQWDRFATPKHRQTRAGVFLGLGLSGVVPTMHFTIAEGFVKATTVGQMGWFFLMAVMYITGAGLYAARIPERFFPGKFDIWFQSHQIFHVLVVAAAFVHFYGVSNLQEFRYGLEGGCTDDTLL
- Assay notes: Surface plasmon resonance (SPR) binding of peptide to immobilized recombinant ADIPOR1
- Measurement context: ADIPOR1 amine-coupled to CM5 chip, running buffer pH 7.4, read-out: dissociation constant (Kd) from ADIPOR1
Square brackets hold non-standard residues; d marks the D form. Peptide text beside a SMILES is read from it. Nva = CCC[C@H](N)C(=O)O

For orientation, consider the following solved cases.
Compound	Study target	Kd
CCC[C@H](NC(=O)[C@@H]1CCCN1C(=O)[C@@H](NC(=O)[C@H](N)CC(N)=O)[C@@H](C)CC)C(=O)N[C@@H](CC(C)C)C(=O)N[C@@H](Cc1ccc(O)cc1)C(=O)N[C@H](CO)C(=O)N[C@@H](Cc1ccccc1)C(=O)N[C@@H](C)C(=O)N[C@H](CO)C(N)=O [ADP355] (H-[dN]IP[Nva]LY[dS]FA[dS]-NH2)	adiponectin receptor 1 (ADIPOR1) (Homo sapiens)	≥ 100 µM
CC[C@H](C)[C@H](NC(=O)[C@H](CC(N)=O)NC(=O)[C@@H]1CCCN1C(=O)[C@H](Cc1c[nH]cn1)NC(=O)[C@H](Cc1ccc(O)cc1)NC(=O)[C@H](C)NC(=O)[C@H](Cc1ccccc1)NC(=O)[C@H](Cc1ccc(O)cc1)NC(=O)[C@@H](N)Cc1ccc(O)cc1)C(=O)N1CCC[C@H]1C(=O)NCC(=O)N[C@@H](CC(C)C)C(=O)N[C@@H](Cc1ccc(O)cc1)C(=O)N[C@@H](Cc1ccc(O)cc1)C(=O)N[C@@H](Cc1ccccc1)C(=O)O [peptide 3-1] (H-YYFAYHPNIPGLYYF-OH)	adiponectin receptor 1 (ADIPOR1) (Homo sapiens)	≤ 16 µM
CC[C@H](C)[C@H](NC(=O)[C@H](CC(N)=O)NC(=O)[C@@H]1CCCN1C(=O)[C@H](Cc1c[nH]cn1)NC(=O)[C@H](Cc1ccc(O)cc1)NC(=O)[C@H](C)NC(=O)[C@H](Cc1ccccc1)NC(=O)[C@H](Cc1ccc(O)cc1)NC(=O)[C@@H](N)Cc1ccccc1)C(=O)N1CCC[C@H]1C(=O)NCC(=O)N[C@@H](CC(C)C)C(=O)N[C@@H](Cc1ccccc1)C(=O)N[C@@H](Cc1ccc(O)cc1)C(=O)N[C@@H](Cc1ccccc1)C(=O)O [peptide 4-4] (H-FYFAYHPNIPGLFYF-OH)	adiponectin receptor 1 (ADIPOR1) (Homo sapiens)	2 to 4.3 µM

# evaluate next
Request: For the compound CC[C@H](C)[C@H](NC(=O)[C@H](CC(N)=O)NC(=O)[C@@H]1CCCN1C(=O)[C@H](Cc1c[nH]cn1)NC(=O)[C@H](Cc1ccc(O)cc1)NC(=O)[C@H](C)NC(=O)[C@H](Cc1ccccc1)NC(=O)[C@H](Cc1ccc(O)cc1)NC(=O)[C@@H](N)Cc1c[nH]c2ccccc12)C(=O)N1CCC[C@H]1C(=O)NCC(=O)N[C@@H](CC(C)C)C(=O)N[C@@H](Cc1c[nH]c2ccccc12)C(=O)N[C@@H](Cc1ccc(O)cc1)C(=O)N[C@@H](Cc1ccccc1)C(=O)O [peptide 4-3] (H-WYFAYHPNIPGLWYF-OH) , give its measured Kd value.
Result: 6 to 10 µM
